test system: HeLa cells; test: qHTS ATPlite cell viability, HeLa cells; type: cell-based, human; settings: HeLa; confirmation screen, 48 h
TEST_READOUT: IC50 (µM)

INSERT INTO measurements (chem_smiles, measurement) VALUES
  ('COc1cc(N2CCC(N)CC2)ccc1Nc1ncc(Cl)c(-c2c[nH]c3ccccc23)n1', 0.638),
  ('COc1cc(N2CCC(N3CCN(C)CC3)CC2)ccc1Nc1ncc(Cl)c(Nc2ccccc2S(=O)(=O)C(C)C)n1', 0.835);

* * *

system: PA-1 cells; experiment: ATP content (ATPlite) cell viability assay in PA-1 cells; assay type: cell-based, human; conditions: 48 hours incubation; assay optimization; read-out: IC50 (PA-1)
pIC50: −log10 of the molar value.
TEST_READOUT: pIC50

INSERT INTO measurements (compound, measurement) VALUES
  ('CC(=O)OC(C)(C)/C=C/C(=O)[C@](C)(O)[C@H]1[C@H](O)C[C@@]2(C)[C@@H]3CC=C4[C@H](C[C@H](O)C(=O)C4(C)C)[C@]3(C)C(=O)C[C@]12C [Curcubitacin B]', 7.20);

* * *

tested on: placental cancer cell lines (JAR, JEG-3); test: qHTS ATPlite cell viability, placental cancer cell lines; format: cell-based, human; settings: Placental cancer cell line killer; vs HEK 293T; >100 = inactive in HEK293T
TEST_READOUT: Average SI

INSERT INTO results (chem_smiles, inequality_symbol, measurement) VALUES
  ('CC[C@@H]1C(=O)N(C)c2cnc(Nc3ccc(C(=O)N[C@H]4CC[C@H](N5CCN(CC6CC6)CC5)CC4)cc3OC)nc2N1C(C)C', '=', 131),
  ('N=C(N)c1ccc(OCCCCCOc2ccc(C(=N)N)cc2)cc1', '>', 100),
  ('C=C(C)[C@H]1Cc2c(ccc3c2O[C@@H]2COc4cc(OC)c(OC)cc4[C@@H]2C3=O)O1', '=', 19.5),
  ('C[C@@H](Oc1cc(-n2cnc3ccc(CN4CCN(C)CC4)cc32)sc1C(N)=O)c1ccccc1C(F)(F)F', '=', 8.81),
  ('O=C(Nc1cccnc1)N1CCC(Cc2cccc(Oc3ccc(C(F)(F)F)cn3)c2)CC1', '>', 100);

* * *

test system: HeLa cells; assay: qHTS ATPlite cell viability, HeLa cells; type: cell-based, human; details: HeLa selective compounds; vs HEK 293T
Let's look at some molecules and their measured Avg SI.
TEST_READOUT: Avg SI

INSERT INTO measurements (chem_smiles, test_readout, measurement) VALUES
  ('COc1cc(N2CCC(N3CCN(C)CC3)CC2)ccc1Nc1ncc(Cl)c(Nc2ccccc2S(=O)(=O)C(C)C)n1', 'Avg SI', 28.0),
  ('COc1cc(N2CCC(N)CC2)ccc1Nc1ncc(Cl)c(-c2c[nH]c3ccccc23)n1', 'Avg SI', 30.3),
  ('C[C@@H](Oc1ccc2[nH]nc(/C=C/c3cnn(CCO)c3)c2c1)c1c(Cl)cncc1Cl', 'Avg SI', 38.8),
  ('CCS(=O)(=O)c1cccc(-c2cc(C(=O)NC3CCN(C)CC3)c(C)c3[nH]c4ncc(C)cc4c23)c1', 'Avg SI', 12.6);

* * *

tested on: placental cancer cell lines (JAR, JEG-3); test: qHTS ATPlite cell viability, placental cancer cell lines; assay type: cell-based, human; conditions: Homo sapiens, JEG-3; read-out: IC50 for the placental lines
TEST_READOUT: IC50

INSERT INTO assay_data (chem_smiles, measurement) VALUES
  ('Cc1[nH]c2ccccc2c1CCNCc1ccc(/C=C/C(=O)NO)cc1', '516 nM');

* * *

system: TOV-21-G cells; assay: qHTS ATPlite cell viability, TOV-21-G cells; assay type: cell-based, human; details: Homo sapiens, TOV21G, 48 h, read-out: Avg IC50 (μM)
TEST_READOUT: IC50 (µM)

INSERT INTO measurements (compound, experimental_target, measurement) VALUES
  ('CCOc1cc2ncc(C#N)c(Nc3ccc(OCc4ccccn4)c(Cl)c3)c2cc1NC(=O)/C=C/CN(C)C [Neratinib]', 'TOV-21-G cells', 0.619);

* * *

tested on: HEK 293T cells; experiment: cells; settings: HEK 293T, this screen (ATPlite), 48 h
TEST_READOUT: Efficacy (%) (HEK 293T toxicity)

INSERT INTO results (chem_smiles, experimental_target, test_readout, measurement_units, measurement) VALUES
  ('Cc1csc(NC(=O)CSc2nc3c(c(C(F)(F)F)c2C#N)CCC3)n1', 'HEK 293T cells', 'Efficacy (%) (HEK 293T toxicity)', '%', 102),
  ('COc1ccc(-c2ccc3ncc4c(c3c2)n(-c2ccc(N3CCNCC3)c(C(F)(F)F)c2)c(=O)n4C)cn1', 'HEK 293T cells', 'Efficacy (%) (HEK 293T toxicity)', '%', 106),
  ('Cc1[nH]c2ccccc2c1CCNCc1ccc(/C=C/C(=O)NO)cc1', 'HEK 293T cells', 'Efficacy (%) (HEK 293T toxicity)', '%', 82.6);

Where do the numbers come from? From paper PMC6302136.
